Tested on: HCT-116 colon
Experiment: NCI-60 one-dose screen, 48 h (100 = growth as untreated, 0 = no growth, -100 = all killed)
Details: 10 µM unless noted
Method: Growth inhibition of the HCT-116 human tumor cell line is measured as a screen for anti-cancer activity. Cells are grown in 96 well plates and exposed to the test compound for 48 hours. Compounds are tested at a single concentration, which is 10^-5 M for most compounds. The reported endpoint is percent growth (GI% or GIPRCNT), where numbers from 0 - 100% represent growth inhibition, and numbers from -100% - 0 represent cell death. For example, a value of 40 represents 60% growth inhibition. […]
This is part of a sample that, as a whole, favours compounds with a hit. Of some 83,000 tested, about 20% had one in any assay.
Values of growth greater than or equal to 30% map to true (1); values below map to false (0).

>>> class_assignment("NS(=O)(=O)c1ccc(Nc2nc(N/N=C/c3ccc([N+](=O)[O-])cc3)nc(Nc3ccccc3)n2)cc1")
"false (0)"
>>> class_assignment("NS(=O)(=O)c1ccc(-n2cc(CC=O)nn2)cc1")
"true (1)"

Say whether CCOC(=O)c1ccc(N/C=C/C(=O)c2ccccc2)cc1 shows growth of 30% or more.
true (1)

Item: COc1cc(/C=N/n2cnc3oc(-c4ccccc4)cc3c2=N)cc(CN2CCCCC2)c1O
false (0)

Item: C=CCn1c(SCC(=O)Nc2cccc(C(=O)/C=C/c3ccc(Br)cc3)c2)nc2ccccc2c1=O
false (0)

Item: CS(=O)c1nccc(-c2c(-c3ccc(F)c(OCCc4ccccc4)c3)nc3sccn23)n1 (stereo not given)
true (1)

Item: Nc1nc(-c2cccc([N+](=O)[O-])c2)c(N=Nc2cccc(Cl)c2)s1
true (1)

* * *

Tested on: RPMI-8226 leukemia
Assay: NCI-60 one-dose screen, 48 h
Conditions: 10 µM unless noted
This is part of a sample that, as a whole, favours compounds with a hit. Of some 83,000 tested, about 20% had one in any assay. The source made the active and inactive calls. Rule for the calls: active = growth percent below 10; inactive = the rest.
Hi there, use one of these labels in your reply, thanks! active, inactive

Entry COc1ccc(C(=O)c2c(N)c(C#N)cn2-c2cccc(OC)c2)cc1 : call = ?
inactive

Item: C=CCn1c(SCC(=O)Nc2cccc(C(=O)/C=C/c3ccc(OC)c(OC)c3)c2)nc2ccccc2c1=O
inactive

Item: CNC(=O)c1cc(Oc2ccc3nc(NC(=O)c4ccc(CN5CCCN(C)CC5)c(C(F)(F)F)c4)sc3c2)ccn1
active

Item: CC1COc2c(N3CCN(C)CC3)c(F)cc3c(=O)c(C(=O)N/N=C/c4cc[nH]c4)cn1c23 (stereo not given)
inactive

Item: O=C(NCCCNc1cc(-c2cn(-c3ccccc3)nc2-c2cccc(O)c2)ccn1)Nc1cccc(C(F)(F)F)c1
active

Item: Cc1nn(-c2ccc(Cl)cc2)c(C)c1N=Nc1ccc2oc(=O)ccc2c1
inactive

Item: C#C[C@]1(O)CC[C@H]2[C@@H]3CC=C4c5sc(Nc6nc(C)cc(OC)n6)nc5CC[C@]4(C)[C@H]3CC[C@@]21C
active

Item: CCOP(=O)(OCC)OC[C@]12CCC(C)(C)C[C@H]1C1=CC[C@@H]3[C@@]4(C)C/C(=C\c5cccnc5)[C@H](OP(=O)(OCC)OCC)C(C)(C)[C@@H]4CC[C@@]3(C)[C@]1(C)CC2
active

Item: Cc1ccc(-n2cc(/C=C/C(=O)c3ccc(S(C)(=O)=O)cc3)c(-c3ccc(S(C)(=O)=O)cc3)n2)cc1
inactive

Item: COc1cc(/C=N/n2cnc3oc(-c4ccccc4)cc3c2=N)cc(CN2CCCC2)c1O
active

Item: CC1OC(O[C@@H]2C(O)C(CO)OC(O[C@H]3COC(O[C@H]4CC[C@]5(C)[C@H]6CC[C@]78OC[C@@]9(CC[C@](C)(C=O)C[C@H]97)[C@H](O)C[C@@]8(C)[C@]6(C)CC[C@H]5C4(C)C)[C@@H](OC4OC(CO)[C@@H](O)[C@@H](O)[C@@H]4O)[C@@H]3O)[C@H]2OC2OC[C@@H](O)[C@@H](O)[C@@H]2O)[C@@H](O)[C@@H](O)[C@H]1O (stereo not given in full)
inactive

Item: CCN1C(=O)N(CC)C2SC(N/N=C/c3ccccc3F)=NC21 (stereo not given)
inactive

Item: CN1C(=O)N(C)C2Nn3c(s/c(=C\c4ccccn4)c3=O)=NC21 (stereo not given)
inactive

Item: CC1(C)CC[C@]2(C(=O)O)CC[C@]3(C)C(=CCC4[C@@]5(C)C[C@@H](O)[C@@H]6OC(c7ccccc7O)OC[C@@]6(C)C5CC[C@]43C)C2C1 (stereo not given in full)
inactive

Item: Oc1ccccc1-c1nnc(SCc2ccc(O)c3ncccc23)n1-c1ccccc1
inactive
